System: HL-60(TB)
Experiment: Growth inhibition of human HL-60(TB) cells assessed tumor cell growth at 10^-5 M
Assay type: functional
Design: scale not given: the % may be the effect or the level left
metric name: Activity
Report field: quantity (unit follows the number).

Notebook entry, HL-60(TB) assay: Activity of CC1=NN(c2cccc(Cl)c2)C(=O)/C1=C\c1coc2ccccc2c1=O = ?
106.16%

HL-60(TB) / Activity / Cc1ccc(S(=O)(=O)N2C(=O)/C(=C\c3cn(S(=O)(=O)c4ccc(C)cc4)c4ccccc34)c3ccccc32)cc1 : value?
85.6%

Reported Activity for HL-60(TB), given O=C1/C(=C\c2cn(C(=O)c3ccccc3)c3ccccc23)c2ccccc2N1c1c(Cl)cccc1Cl ?
102.5%

# get_value(readout= Activity, system= HL-60(TB)) for O=C1Nc2ccccc2/C1=C/c1cn(C(=O)c2ccc(Cl)cc2)c2ccccc12
150.1%

Under HL-60(TB): Activity value of O=C1/C(=C\c2ccccn2)c2ccccc2N1c1c(Cl)cccc1Cl ?
1.39%

---

Test system: SK-MEL-28
Assay: Growth inhibition of human SK-MEL-28 cells assessed tumor cell growth at 10^-5 M
Assay type: functional
Parameters: scale not given: the % may be the effect or the level left
For each record, write down the corresponding Activity.
Number only, in %; omit the unit.

Any idea what its Activity is? The molecule is O=C1Nc2ccccc2/C1=C/c1cn(C(=O)c2c(Cl)cccc2Cl)c2ccccc12
81.4

Name the recorded Activity for C=CCn1cc(/C=C2\C(=O)N(c3c(Cl)cccc3Cl)c3ccccc32)c2ccccc21 .
109.8

Which Activity is reported for this molecule? CC1=NN(c2cccc(Cl)c2)C(=O)/C1=C\c1ccccn1
128.95

Would you kindly share the measured Activity for O=C1Nc2ccccc2/C1=C/c1cn(C(=O)c2ccc(Cl)cc2)c2ccccc12 ?
92.9

Value lookup for Activity; key = CN1C(=O)C(=Cc2coc3ccccc3c2=O)C(=O)N(C)C1=O
108.31

Query (molecule): CC1=NN(c2cccc(Cl)c2)C(=O)/C1=C\c1c(O)ccc2ccccc12 ; field requested: Activity
35.25

Quick one: Activity of O=C1/C(=C\c2cn(Cc3ccccc3)c3ccccc23)c2ccccc2N1Cc1ccccc1 ?
104.8

Tell me the measured Activity of CC1=NN(c2cccc(Cl)c2)C(=O)/C1=C\C=C\c1ccccc1 , please.
-76.48

Consider the molecule O=C1/C(=C\c2ccccn2)c2ccccc2N1c1c(Cl)cccc1Cl and give its measured Activity.
-10.05

Returns the measured Activity for the input molecule. Input: Cc1ccc(S(=O)(=O)n2cc(/C=C3\C(=O)N(c4c(Cl)cccc4Cl)c4ccccc43)c3ccccc32)cc1
95.8

Entry under review: O=C1/C(=C\c2cn(C(=O)c3ccccc3)c3ccccc23)c2ccccc2N1c1c(Cl)cccc1Cl . Reported Activity?
113.4

Could you share which Activity value was measured for CC1=NN(c2cccc(Cl)c2)C(=O)/C1=C\c1coc2ccccc2c1=O ?
109.94

Name the reported Activity value associated with the molecule Cc1ccc(S(=O)(=O)N2C(=O)/C(=C\c3cn(S(=O)(=O)c4ccc(C)cc4)c4ccccc34)c3ccccc32)cc1
100.5

Field request: Activity | item: O=C1/C(=C\c2cn(C(=O)c3ccc(Cl)cc3)c3ccccc23)c2ccccc2N1C(=O)c1ccc(Cl)cc1
103

---

Record form. Attribute: Activity. Fill in for each entry.
Test system: SNB-19
Test: Growth inhibition of human SNB19 cells assessed tumor cell growth at 10^-5 M
Format: functional
Parameters: scale not given: the % may be the effect or the level left

# query: Activity of entry CC1=NN(c2cccc(Cl)c2)C(=O)/C1=C\c1cn(S(=O)(=O)c2ccc(C)cc2)c2ccccc12
114.11%

Returns the measured Activity for the input compound. Input: C=CCn1cc(/C=C2\C(=O)N(c3cccc(Cl)c3)N=C2C)c2ccccc21
109.63%

Would you kindly share the measured Activity for CC1=NN(c2cccc(Cl)c2)C(=O)/C1=C\C=C\c1ccccc1 ?
37.51%

Dear colleague, I am looking for the recorded Activity of the following compound: C#CCN1C(=O)/C(=C\c2cn(CC#C)c3ccccc23)c2ccccc21
96.7%

Which Activity is reported for this compound? CC1=NN(c2cccc(Cl)c2)C(=O)/C1=C\c1cn(Cc2ccccc2)c2ccccc12
93.46%

Given the entry CC1=NN(c2cccc(Cl)c2)C(=O)/C1=C\c1cn(C(=O)c2c(Cl)cccc2Cl)c2ccccc12 , report its measured Activity.
100.95%

// lookup Activity for CC1=NN(c2cccc(Cl)c2)C(=O)/C1=C\c1cn(C(=O)c2ccc(Cl)cc2)c2ccccc12
99.84%

Field request: Activity | item: CC1=NN(c2cccc(Cl)c2)C(=O)/C1=C\c1ccccn1
111.92%

Consider the compound CC1=NN(c2cccc(Cl)c2)C(=O)/C1=C\c1c[nH]c2ccccc12 and give its measured Activity.
111.33%

Looking for the measured Activity of O=C1/C(=C\c2cn(Cc3ccccc3)c3ccccc23)c2ccccc2N1Cc1ccccc1 , can you help?
106.1%

Any idea what its Activity is? The compound is CC1=NN(c2cccc(Cl)c2)C(=O)/C1=C\c1c(O)ccc2ccccc12
31.43%

I'd like to know its Activity. The compound in question is O=C1/C(=C\c2ccccn2)c2ccccc2N1c1c(Cl)cccc1Cl
34.85%

Quick one: Activity of O=C1C(=Cc2cn(Cc3ccccc3)c3ccccc23)C(=O)N(Cc2ccccc2)C(=O)N1Cc1ccccc1 ?
87.1%

Name the recorded Activity for C=CCn1cc(/C=C2\C(=O)N(c3c(Cl)cccc3Cl)c3ccccc32)c2ccccc21 .
97.4%

Look up Activity for this compound: O=C1Nc2ccccc2/C1=C/c1cn(C(=O)c2c(Cl)cccc2Cl)c2ccccc12
68.6%

Sample O=C1Nc2ccccc2/C1=C/c1cn(C(=O)c2ccc(Cl)cc2)c2ccccc12 — what was its Activity?
99%

So what's the measured Activity for this one? O=C1/C(=C\c2cn(C(=O)c3c(Cl)cccc3Cl)c3ccccc23)c2ccccc2N1C(=O)c1c(Cl)cccc1Cl
97.3%

For the compound shown here, Cc1ccc(S(=O)(=O)n2cc(/C=C3\C(=O)N(c4c(Cl)cccc4Cl)c4ccccc43)c3ccccc32)cc1 , give the reported Activity.
105.9%

Requested field: Activity. Item: O=C1/C(=C\c2coc3ccccc3c2=O)c2ccccc2N1c1c(Cl)cccc1Cl
62.58%

So what does the record say about Activity for Cc1ccc(S(=O)(=O)N2C(=O)/C(=C\c3cn(S(=O)(=O)c4ccc(C)cc4)c4ccccc34)c3ccccc32)cc1 ?
82.9%

Look up Activity: CC1=NN(c2cccc(Cl)c2)C(=O)/C1=C\c1coc2ccccc2c1=O
102.59%

Using the record for O=C1/C(=C\c2cn(C(=O)c3ccc(Cl)cc3)c3ccccc23)c2ccccc2N1C(=O)c1ccc(Cl)cc1 , report its Activity.
98.2%

Could you tell me which Activity is on file for Cc1ccc(S(=O)(=O)n2cc(/C=C3\C(=O)Nc4ccccc43)c3ccccc32)cc1 ?
85.2%
